# maps each entry to its pEC50
TEST_PROTOCOL: cells
ASSAY_CONTEXT: Homo sapiens, HEK-293T
Description: Agonist activity at human STING AQ expressed in 293T cells by digitonin cell based assay
pEC50: −log10 of the molar value.

STRUCTURE_STRING	RESULT_QUALIFIER	pEC50
Nc1ncnc2c1c(-c1ccccc1)cn2[C@@H]1O[C@@H]2COP(=O)(O)O[C@@H]3[C@H](O)[C@@H](COP(=O)(O)O[C@H]2[C@H]1O)O[C@H]3n1cc(-c2ccccc2)c2c(N)ncnc21	<	4.35
Nc1nc2c(ncn2[C@@H]2O[C@@H]3COP(=O)(O)O[C@H]4[C@@H](O)[C@H](n5cc(-c6ccc7c8c(cccc68)CC7)c6c(N)ncnc65)O[C@@H]4COP(=O)(O)O[C@@H]2[C@@H]3O)c(=O)[nH]1	=	5.82

---

SYSTEM: Stimulator of interferon genes protein (Homo sapiens)
Sequence (Q86WV6 whole entry): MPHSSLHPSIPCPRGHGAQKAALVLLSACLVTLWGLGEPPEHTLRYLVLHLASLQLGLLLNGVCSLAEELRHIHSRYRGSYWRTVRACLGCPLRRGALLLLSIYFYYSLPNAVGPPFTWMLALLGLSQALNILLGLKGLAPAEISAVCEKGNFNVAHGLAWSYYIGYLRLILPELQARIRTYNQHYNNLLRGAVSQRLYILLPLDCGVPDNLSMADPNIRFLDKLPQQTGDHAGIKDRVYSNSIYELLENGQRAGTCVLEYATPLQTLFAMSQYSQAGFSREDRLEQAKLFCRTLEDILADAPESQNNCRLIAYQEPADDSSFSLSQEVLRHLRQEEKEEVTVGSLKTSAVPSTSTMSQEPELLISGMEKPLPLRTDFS
ASSAY_CONTEXT: filed as agonist
Description: Binding affinity to human wild type STING assessed as change in melting temperature by differential scanning fluorimetry (DSF) method
# maps each entry to its ΔTm

STRUCTURE_STRING	ΔTm
Nc1nc2c(ncn2[C@@H]2O[C@@H]3COP(=O)(O)O[C@H]4[C@@H](O)[C@H](n5cc(-c6cccc7c6oc6ccccc67)c6c(N)ncnc65)O[C@@H]4COP(=O)(O)O[C@@H]2[C@@H]3O)c(=O)[nH]1	7.1 °C
Nc1nc2c(ncn2[C@@H]2O[C@@H]3COP(=O)(O)O[C@H]4[C@@H](O)[C@H](n5cc(-c6cc7ccccc7s6)c6c(N)ncnc65)O[C@@H]4COP(=O)(O)O[C@@H]2[C@@H]3O)c(=O)[nH]1	13.5 °C
Nc1nc2c(ncn2[C@@H]2O[C@@H]3COP(=O)(O)O[C@H]4[C@@H](O)[C@H](n5cc(-c6cc7ccccc7o6)c6c(N)ncnc65)O[C@@H]4COP(=O)(O)O[C@@H]2[C@@H]3O)c(=O)[nH]1	12.1 °C
Nc1nc2c(ncn2[C@@H]2O[C@@H]3COP(=O)(O)O[C@H]4[C@@H](O)[C@H](n5cc(-c6ccc7c8c(cccc68)CC7)c6c(N)ncnc65)O[C@@H]4COP(=O)(O)O[C@@H]2[C@@H]3O)c(=O)[nH]1	2.5 °C
Nc1nc2c(ncn2[C@@H]2O[C@@H]3COP(=O)(O)O[C@H]4[C@@H](O)[C@H](n5cc(-c6ccc(-c7ccccc7)cc6)c6c(N)ncnc65)O[C@@H]4COP(=O)(O)O[C@@H]2[C@@H]3O)c(=O)[nH]1	12.3 °C

---

# maps each entry to its ΔTm
SYSTEM: Stimulator of interferon genes protein (Homo sapiens)
ASSAY_CONTEXT: filed as agonist

STRUCTURE_STRING	ΔTm [°C]
Nc1nc2c(ncn2[C@@H]2O[C@@H]3COP(=O)(O)O[C@H]4[C@@H](O)[C@H](n5cc(-c6ccc7ccccc7c6)c6c(N)ncnc65)O[C@@H]4COP(=O)(O)O[C@@H]2[C@@H]3O)c(=O)[nH]1	14.4
Nc1ncnc2c1c(-c1ccccc1)cn2[C@@H]1O[C@@H]2COP(=O)(O)O[C@@H]3[C@H](O)[C@@H](COP(=O)(O)O[C@H]2[C@H]1O)O[C@H]3n1cc(-c2ccccc2)c2c(N)ncnc21	-0.6
Nc1nc2c(ncn2[C@@H]2O[C@@H]3COP(=O)(O)O[C@H]4[C@@H](O)[C@H](n5cc(-c6ccc(-c7ccc8ccccc8c7)cc6)c6c(N)ncnc65)O[C@@H]4COP(=O)(O)O[C@@H]2[C@@H]3O)c(=O)[nH]1	13
Nc1nc2c(c(-c3ccccc3)cn2[C@@H]2O[C@@H]3COP(=O)(O)O[C@H]4[C@@H](O)[C@H](n5cc(-c6ccccc6)c6c(N)ncnc65)O[C@@H]4COP(=O)(O)O[C@@H]2[C@@H]3O)c(=O)[nH]1	1
Nc1nc2c(ncn2[C@@H]2O[C@@H]3COP(=O)(O)O[C@H]4[C@@H](O)[C@H](n5cc(-c6ccccc6)c6c(N)ncnc65)O[C@@H]4COP(=O)(O)O[C@H]3[C@H]2O)c(=O)[nH]1	5.1
Nc1nc2c(ncn2[C@@H]2O[C@@H]3COP(=O)(O)O[C@H]4[C@@H](O)[C@H](n5cc(-c6cc7ccccc7c7ccccc67)c6c(N)ncnc65)O[C@@H]4COP(=O)(O)O[C@@H]2[C@@H]3O)c(=O)[nH]1	4.4
Nc1nc2c(ncn2[C@@H]2O[C@@H]3COP(=O)(O)O[C@H]4[C@@H](O)[C@H](n5cc(-c6cccc7ccccc67)c6c(N)ncnc65)O[C@@H]4COP(=O)(O)O[C@@H]2[C@@H]3O)c(=O)[nH]1	4.4
Nc1nc2c(ncn2[C@@H]2O[C@@H]3COP(=O)(O)O[C@@H]4[C@H](O)[C@@H](COP(=O)(O)O[C@@H]2[C@@H]3O)O[C@H]4n2cnc3c(N)ncnc32)c(=O)[nH]1	2.5
Nc1nc2c(ncn2[C@@H]2O[C@@H]3COP(=O)(O)O[C@H]4[C@@H](O)[C@H](n5cc(-c6ccccc6)c6c(N)ncnc65)O[C@@H]4COP(=O)(O)O[C@@H]2[C@@H]3O)c(=O)[nH]1	8.1

---

TEST_PROTOCOL: cells
ASSAY_CONTEXT: Homo sapiens, HEK-293T
# maps each entry to its EC50

STRUCTURE_STRING	EC50
Nc1nc2c(ncn2[C@@H]2O[C@@H]3COP(=O)(O)O[C@@H]4[C@H](O)[C@@H](COP(=O)(O)O[C@@H]2[C@@H]3O)O[C@H]4n2cnc3c(N)ncnc32)c(=O)[nH]1	173 nM
Nc1nc2c(ncn2[C@@H]2O[C@@H]3COP(=O)(O)O[C@H]4[C@@H](O)[C@H](n5cc(-c6cc7ccccc7o6)c6c(N)ncnc65)O[C@@H]4COP(=O)(O)O[C@@H]2[C@@H]3O)c(=O)[nH]1	85 nM
Nc1nc2c(ncn2[C@@H]2O[C@@H]3COP(=O)(O)O[C@H]4[C@@H](O)[C@H](n5cc(-c6ccc7ccccc7c6)c6c(N)ncnc65)O[C@@H]4COP(=O)(O)O[C@@H]2[C@@H]3O)c(=O)[nH]1	550 nM
Nc1nc2c(ncn2[C@@H]2O[C@@H]3COP(=O)(O)O[C@H]4[C@@H](O)[C@H](n5cc(-c6ccc(-c7ccccc7)cc6)c6c(N)ncnc65)O[C@@H]4COP(=O)(O)O[C@@H]2[C@@H]3O)c(=O)[nH]1	92 nM
Nc1nc2c(ncn2[C@@H]2O[C@@H]3COP(=O)(O)O[C@H]4[C@@H](O)[C@H](n5cc(-c6cc7ccccc7c7ccccc67)c6c(N)ncnc65)O[C@@H]4COP(=O)(O)O[C@@H]2[C@@H]3O)c(=O)[nH]1	1400 nM

---

# maps each entry to its pEC50
SYSTEM: Stimulator of interferon genes protein (Homo sapiens)
TEST_PROTOCOL: Agonist activity at human wild type STING expressed in 293T cells by digitonin cell based assay
Set-up: species or system HEK293T
pEC50: −log10 of the molar value.
REPORTED_ENDPOINT: pEC50

STRUCTURE_STRING	SYSTEM	RESULT_NUMBER
Nc1nc2c(ncn2[C@@H]2O[C@@H]3COP(=O)(O)O[C@H]4[C@@H](O)[C@H](n5cc(-c6ccccc6)c6c(N)ncnc65)O[C@@H]4COP(=O)(O)O[C@H]3[C@H]2O)c(=O)[nH]1	Stimulator of interferon genes protein (Homo sapiens)	6.96
Nc1nc2c(ncn2[C@@H]2O[C@@H]3COP(=O)(O)O[C@H]4[C@@H](O)[C@H](n5cc(-c6ccc(-c7ccc8ccccc8c7)cc6)c6c(N)ncnc65)O[C@@H]4COP(=O)(O)O[C@@H]2[C@@H]3O)c(=O)[nH]1	Stimulator of interferon genes protein (Homo sapiens)	7.49
Nc1nc2c(c(-c3ccccc3)cn2[C@@H]2O[C@@H]3COP(=O)(O)O[C@H]4[C@@H](O)[C@H](n5cc(-c6ccccc6)c6c(N)ncnc65)O[C@@H]4COP(=O)(O)O[C@@H]2[C@@H]3O)c(=O)[nH]1	Stimulator of interferon genes protein (Homo sapiens)	5.19
Nc1nc2c(ncn2[C@@H]2O[C@@H]3COP(=O)(O)O[C@H]4[C@@H](O)[C@H](n5cc(-c6ccc(-c7ccccc7)cc6)c6c(N)ncnc65)O[C@@H]4COP(=O)(O)O[C@@H]2[C@@H]3O)c(=O)[nH]1	Stimulator of interferon genes protein (Homo sapiens)	7.89

---

TEST_PROTOCOL: cells
ASSAY_CONTEXT: Homo sapiens, HEK-293T
# maps each entry to its EC50

STRUCTURE_STRING	EC50 [µM]
Nc1nc2c(ncn2[C@@H]2O[C@@H]3COP(=O)(O)O[C@H]4[C@@H](O)[C@H](n5cc(-c6cccc7c6oc6ccccc67)c6c(N)ncnc65)O[C@@H]4COP(=O)(O)O[C@@H]2[C@@H]3O)c(=O)[nH]1	0.869
Nc1nc2c(c(-c3ccccc3)cn2[C@@H]2O[C@@H]3COP(=O)(O)O[C@H]4[C@@H](O)[C@H](n5cc(-c6ccccc6)c6c(N)ncnc65)O[C@@H]4COP(=O)(O)O[C@@H]2[C@@H]3O)c(=O)[nH]1	10.3
